tested on: SK-OV-3 ovarian; assay: NCI-60 one-dose screen, 48 h (100 = growth as untreated, 0 = no growth, -100 = all killed); conditions: 10 µM unless noted
This is part of a sample that, as a whole, favours compounds with a hit. Of some 83,000 tested, about 20% had one in any assay.
Would you mind labelling by growth? At or over 80% is true (1), under is false (0).

// below: answered compounds
O=S(=O)(NCCNc1cc(-c2cn(-c3ccccc3)nc2-c2cccc(O)c2)ccn1)c1ccc(F)cc1: false (0)
Nc1c2c(nc3ccc(Cl)cc13)CC(c1ccc(O)cc1)CC2=O (stereo unspecified): false (0)
C[Si](C)(C)Cc1ccccc1: true (1)

Decide: growth of COc1ccc(/C=C2\N=C(c3ccccc3)N(c3cc(OC)c(OC)cc3C(=O)N3N=C(C)CC3=O)C2=O)cc1 >= 80%?
true (1)

growth >= 80% for CC(=O)NC1=C(C#N)C(c2ccccc2Cl)c2c(ccc3ccccc23)O1 (stereo unspecified) ?
true (1)

Does the reported growth for COc1cccc(-c2nn(-c3ccccc3)cc2-c2ccnc(NCCCNS(=O)(=O)c3ccc(C(F)(F)F)cc3)c2)c1 fall at or above the 80% mark?
false (0)

Textbook exercise: given the entry Cc1ccc2oc(=O)cc(-c3sc(N4CCCCC4)nc3-c3ccccc3)c2c1 , state whether its growth is greater than or equal to 80%.
true (1)

Is it the case that O=C(O)c1cccc2c1-c1ccc(Cl)cc1C2 has growth reaching or exceeding 80%?
true (1)

growth >= 80% for C/C(Cc1ccc(Cl)cc1)=C(/c1ccc(Cl)cc1)c1ccc(OCCN2CCCC2)cc1 ?
true (1)

Item Cn1c2c(c3ccc(Cl)cc31)-n1cccc1C2=O with growth of 80% or above?
true (1)

Decide: is the reported value of growth for C#CCn1c2c(c3ccccc31)C[C@]1(C)[C@H]3CC[C@@H]4[C@@H]5C(=CCC[C@H]5C(=C)C)CC[C@@]4(C)[C@]3(C)CC[C@H]1C2(C)C equal to or greater than 80%?
true (1)

Entry COc1cc(-c2cc3ncccc3c3nc(OCCN(C)C)c4cccnc4c23)cc(OC)c1OC : is its growth no less than 80%?
false (0)

Answer whether growth of Cc1cc(N2CCCC2)nc(N(CCNc2ccnc3cc(Cl)ccc23)Cc2ccco2)n1 is greater than or equal to 80%.
false (0)

Is it the case that Cc1cc(N2CCCCC2)nc(N(CCCNc2ccnc3cc(Cl)ccc23)Cc2ccco2)n1 has growth reaching or exceeding 80%?
false (0)

Does the reported growth for COc1ccc(/C=C/C(=O)NCCO)cc1 fall at or above the 80% mark?
true (1)

Hi, just wondering whether COc1ccc2c(c1)c(-c1nc(-c3c[nH]c4ncccc34)cs1)cn2CCN shows growth of 80% or higher.
false (0)

Would you say Cc1cc(N(CCCNc2ccnc3cc(Cl)ccc23)Cc2ccco2)nc(N2CCN(C)CC2)n1 shows growth at minimum 80%?
true (1)
